Measured inhibition values are reported for all entries that follow.
# measured target: L-lactate dehydrogenase (Plasmodium falciparum (isolate CDC / Honduras)) (UniProt Q27743)
# Sequence (Q27743 whole entry, looked up): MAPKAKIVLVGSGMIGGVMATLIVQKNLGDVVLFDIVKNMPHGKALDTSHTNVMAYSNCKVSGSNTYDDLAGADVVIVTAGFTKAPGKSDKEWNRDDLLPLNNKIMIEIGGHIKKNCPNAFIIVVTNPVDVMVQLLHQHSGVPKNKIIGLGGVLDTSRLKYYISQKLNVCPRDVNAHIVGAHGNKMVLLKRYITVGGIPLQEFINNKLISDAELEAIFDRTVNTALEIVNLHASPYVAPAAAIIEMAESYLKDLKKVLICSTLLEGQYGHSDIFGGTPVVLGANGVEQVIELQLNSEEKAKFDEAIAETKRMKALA
# test method notes: PfLDH activity inhibition – cell lysate, 3D7 strain, counter-screen for P. falciparum growth inhibition project (AID 2304);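 note: 0% = vehicle and 100% = reference inhibitor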
# condition description: P. falciparum 3D7 crude extract, LDH APAD/NBT absorbance; at 2 µM; stronger effect = higher value
Your answer should be a plain number; it is taken to be in %.

Use the examples below as a reference point.
>  <molecule>
Nc1ccc2[nH]cc(C3CCN(CC4CCC(NC(=O)/C=C/c5ccccc5Cl)CC4)CC3)c2n1 (centres undefined)

>  <inhibition (%)>
-3

$$$$
>  <molecule>
CCCC[C@@H](C(=O)NCCc1ccc(Cl)cc1)N1C(=O)CCC1C(=O)Nc1ccc(Cl)c(Cl)c1 (some centres undefined)

>  <inhibition (%)>
2

$$$$
>  <molecule>
O=C(/C=C/c1ccc(Cl)c(Cl)c1)NC1CCC(CN2CCC(c3cc4ccccc4[nH]3)CC2)CC1 (centres undefined)

>  <inhibition (%)>
1

$$$$

Look up inhibition for this molecule: c1ccc2[nH]c(-c3ccc(-c4ccc(CN5CCN(CCN6CCOCC6)CC5)cc4)cc3)nc2c1 -1
